Known melting point of a selection of molecules

MOLECULE	MEASURED PARAMETER	REPORTED MEASUREMENT
O=C(Nc1cc2c(cn1)[nH]c1ccccc12)c1cccs1	melting point	109 to 125 °C
N#Cc1ccc2c(c1)C(=O)c1cc(N3CCCCC3)ccc1C2=O	melting point	274 to 275 °C
O=C(OCCn1cnc2c(Cl)nc3ccccc3c21)c1ccccc1	melting point	186 °C
O=[N+]([O-])c1ccc(Br)c(SC(F)(F)F)c1	melting point	118 °C
CCOC(=O)c1ccc(C#CC(O)c2cc(C(C)(C)C)cc(C(C)(C)C)c2O)cc1 (stereo not drawn)	melting point	142 to 144 °C

stdin: Requested read-out: melting point. Entry: COC(=O)C(NC(=O)N1C2CCC(C2)N1CC(O)C(Cc1ccccc1)NC(=O)C(NOCc1ccccn1)C(C)C)C(C)C (mixture of isomers)
stdout: 79 to 84 °C

stdin: Next entry: CCOC(=O)c1cnc2sc(S(=O)(=O)Cc3ccccc3)nn2c1=O
stdout: 200 to 203 °C

stdin: Try this molecule next: N#CCCCOc1ccc(/C=C/C(=O)O)c(Oc2ncc(C(F)(F)F)cc2Cl)c1
stdout: 183 to 185 °C

stdin: // repeat for Cc1ccc(-c2ccccc2NC(=N)N(C)C)cc1 and report
stdout: 147 to 148 °C

stdin: Do the same for CC(=O)OC[C@H]1OCC(=NO)[C@@H](OC(C)=O)[C@@H]1OC(C)=O please
stdout: 90 to 92 °C

stdin: Moving on to the next molecule: CC1=NS(=O)(=O)N(C)C(Cl)=N1
stdout: 86 to 90 °C

stdin: Next record, please: CN(C)CC1=C(Nc2ccccc2)CC(C)(C)CC1=O
stdout: 111 to 112 °C

stdin: Now the same for CC#Cc1ncn2c1[C@@H]1CCCN1C(=O)c1c(Cl)cccc1-2
stdout: 208 to 209 °C

stdin: Okay, and CC(C)(C)C(=O)Nc1ccc2oc3c(c2c1)CCC3 ?
stdout: 188 to 190 °C

stdin: Next molecule up: CCn1ncc2c(NCC3(O)CCCCC3)c3cc(OC)ccc3nc21
stdout: 201 to 203 °C

stdin: Repeat for the following molecule: CCc1nc2c(C)c(N)c(C)nc2[nH]1
stdout: 153 to 155 °C

stdin: Now consider Cc1nnc(C=Cc2ccccc2OCC(O)CNC2CC2)s1 (stereo not drawn) and answer again.
stdout: 144 to 145 °C

stdin: // next record CC=Cc1cc(-c2ccc(F)cc2)cc(C(=O)O)c1O
stdout: 196 to 200 °C

----------
Each entry below carries its recorded melting point.

Completed entries (count: 4):
COMPOUND	REPORTED MEASUREMENT
Nc1nc(COc2ccc(Cl)cc2)nc2nccnc12	246 to 248 °C
O=C(CCNC(=O)NOCCCl)NCC1CC1	105 to 106 °C
O=C(c1ccc([N+](=O)[O-])cc1)N1CCc2cc(S(=O)(=O)N3CC(c4ccccc4)NC3=O)ccc21 (stereo not given)	145 °C
CC(C)(n1cncn1)C(O)(Cn1cncn1)c1ccc(F)cc1F (stereo not given)	155 to 157 °C

stdin: Would you mind telling me what melting point value was observed for N#CCc1ccnc2c(NC(=O)c3c(Cl)cccc3Cl)cccc12 ?
stdout: 234 to 236 °C

stdin: Now consider CC(C)c1c(C=O)c(-c2ccc(F)cc2)c2ccccn12 and answer again.
stdout: 94 to 95 °C

stdin: Same lookup for NCC1Cc2cc(C(F)(F)F)cc(-c3ccsc3)c2O1 (stereo not given) , please.
stdout: > 250 °C

stdin: Same read-out for CCN(C(=O)Cc1ccc(S(C)(=O)=O)cc1)C1CCN(C(=O)OC(C)(C)C)CC1 ?
stdout: 138 to 140 °C

stdin: Further, for CN1CCN(C(=O)c2cc(S(=O)(=O)NC3CCCCC3)ccc2N)CC1 ?
stdout: 167 to 168 °C

stdin: Next compound: CNc1cc(S(=O)(=O)c2ccccc2)ccn1
stdout: 142 to 143 °C

stdin: Item: CC(C)(C)C(NC(=O)c1ccc(Cl)cc1)NC(=S)Nc1cccnc1 (stereo not given)
stdout: 164 to 167 °C

stdin: Subsequent entry: Cn1nc(C2CCN(C#N)CC2)c2ccc(F)cc21
stdout: 133 to 136 °C

stdin: And CCCn1nc2c(N)nc3ccccc3c2c1CC(C)(C)NC(=O)C(C)C ?
stdout: 177 to 178 °C

stdin: Let us now turn to O=C1NC(=O)C(Nc2cccc(CCOCc3ccc4ccccc4n3)c2)S1 (stereo not given)
stdout: 167 to 168 °C

stdin: And O=C1CN2C(=O)N(c3cc(Cl)cc(Cl)c3)C(=O)C2(Cc2ccc(Br)cc2)C1 (stereo not given) ?
stdout: 85.4 °C

stdin: And Brc1ccc2c(c1)C1(c3ccccc3-c3ccccc31)c1cc(Br)ccc1-2 ?
stdout: 340 to 341 °C

----------
The following molecules are listed with their measured melting point values.

Examples with their reported melting point follow.
SMILES INPUT	melting point
CC(F)(F)CCc1ccccc1S(N)(=O)=O	70 to 72 °C
CCc1ccsc1C(=O)O	106 to 109 °C

Continue with the molecule presented below.
stdin: Which melting point value belongs to CCCn1c(=O)c(N)nc2ccccc21 ?
stdout: 191 to 192 °C

----------
Form field: melting point (one value per entry).

Study these solved cases before continuing.
SMILES INPUT	melting point
COC(=O)COc1cccc(CCNC(=O)/C=C/c2cccnc2)c1	102 to 104 °C
O=C(c1cccs1)c1cnn2c(-c3cccc(NCC4CCCCC4)c3)ccnc12	101 to 104 °C
C[C@@H](NC(=O)c1c[nH]c2ncc(-c3nn(C)c4cc(C(C)(C)C)ccc34)nc12)C(=O)N1CC(C#N)C1	180 to 195 °C
Cc1cnc(-c2nn(C)c(OC(F)F)c2Cl)c(F)c1	41 to 42 °C
COC(=O)Cc1ccc2c(c1)C(=O)c1ccccc1CO2	74 to 76 °C

// moving on: another record for melting point
stdin: Returns the measured melting point for the input compound. Input: CSc1ccc([N+](=O)[O-])c(C(=O)NCC2CCN(C(c3ccccc3)c3ccccc3)CC2)c1
stdout: 179 to 181 °C

----------
MEASURED PARAMETER: melting point

Known results for molecules:
MOLECULE	REPORTED MEASUREMENT
O=C(O)CCCc1ccc(C(NS(=O)(=O)c2ccc(Cl)cc2)C2CCCC2)cc1 (single isomer, unassigned; (-))	160 to 162 °C
O=C(NCc1ccc(Cl)cc1Cl)N1CCc2[nH]cnc2C1CCC1CCCCC1 (stereo not drawn)	185 to 187 °C
COc1ccccc1N1CCN(C2CCN(c3noc4ccccc34)CC2)CC1	71 to 73 °C
CS(=O)c1ccc(C2=C(c3ccccc3)C(=O)C(C)(C)O2)c(Cl)c1 (stereo not drawn)	135 to 136 °C
COc1ccccc1NC(=O)c1ccc(C#N)cc1	158 to 160 °C
C#CCC(NC(=O)c1ccccc1)C(C)=O (stereo not drawn)	101 to 103 °C
COc1ccc2ccc(NC(=O)C3CC3)nc2n1	170 °C

Please find the next molecule below.
stdin: Tell me the measured melting point of C[C@]12CCC(=O)N[C@@H]1CCc1cc(Sc3cccc(F)c3)ccc12 , please.
stdout: 154 to 156 °C

----------
Each entry below carries its recorded melting point.

Take a look at these entries with their results.
SMILES INPUT	melting point
COc1nc(N)nc2c1ncn2[C@@H]1O[C@H](CO)[C@@H](O)[C@@]1(C)F	199 to 202 °C
CCn1c(=O)c2[nH]c(C(C)=Cc3ccccc3)nc2n(CC)c1=O	251 to 252 °C
CS(=O)(=O)c1ccc(-c2[nH]c3ccccc3c2-c2ccccc2)cc1	221 to 222 °C

Shifting focus to the molecule that follows.
stdin: Fill in: melting point of NNc1nc2ccc(C(F)(F)F)cc2n(OCc2ccccc2)c1=O is ___
stdout: 174 to 176 °C

----------
Entries and their melting point values follow.

COMPOUND	melting point
O=C(O)CCCc1ccc(CNC(=O)C2Cc3ccccc3N2S(=O)(=O)c2ccc(-c3cccc(C(F)(F)F)c3)cc2)cc1 (stereo unspecified)	75 °C
C[C@@H](c1ccc(-c2ccn(C3CC3)c(=O)c2)cc1)N1CC[C@](CC(C)(C)O)(c2ccccc2)OC1=O	91 to 94 °C
O=C(NCCCCSc1ccncc1)c1ccccc1CO	87 to 88 °C
CC(C)(C(=O)NO)C(O)Cc1ccccc1 (stereo unspecified)	95 to 96 °C
OC1CCCN2CCCCC12 (stereo unspecified)	70 °C
FC(F)(F)Oc1ccc2nc(NC(=S)Nc3ccccc3)sc2c1	234 °C
Cc1c(C)c2c(c(C)c1O)C(=O)CC(COc1ccc(CC3SC(=O)NC3=O)cc1)O2 (stereo unspecified)	249 to 252 °C
O=C(NC1CN2CCC1CC2)C1(O)c2ccccc2-c2ccccc21 (stereo unspecified)	230 °C
COC[C@H](C)Oc1cc(N(C)S(=O)(=O)c2ccccn2)c2[nH]c(C3=NCC(CN4CCS(=O)CC4)S3)cc2c1 (stereo partly specified)	175 to 176 °C
CC1(C)CC(=O)C(C(=O)NS(=O)(=O)c2ccccc2)C(=O)C1	101 to 103 °C

Field: next compound
stdin: Quick check: melting point of CCc1[nH]n(C2CCCC2)c2nc(COS(C)(=O)=O)nc(=O)c1-2 ?
stdout: 138 to 140 °C
